Reference source: PubChem BioAssay

# protocol notes: Plasmodium falciparum growth inhibition, primary screen, strain 3D7, DAPI fluorescence, 100 nL (AID 1184);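 note: parasites grown inside human red blood cells in medium with human serum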
# run parameters: P. falciparum 3D7 growth, 3 d, higher = more signal
readout kind: z-score
Answer as a number with no unit attached.

Ask: Fill in z-score for record CO[C@@H]1COC(=O)[C@@H](C)COC(=O)[C@@H](C)NC(=O)CC=C[C@@H]1C
Reply: -1.52

Ask: Fill in z-score for record O=C1C=C[C@@H](O)[C@@H]2[C@@H]3C(=O)N(C[C@@H]4CCCO4)C(=O)[C@@H]3CC[C@@H]12
Reply: 0.0136

Ask: Fill in z-score for record C=CC[C@@H]1C=C[C@H](ON=C[C@@H](C)[C@H](OCc2ccccc2)C(C)C)[C@@H](CO)O1
Reply: 0.395

Ask: Fill in z-score for record C[C@@H]1CC[C@H]2C(=O)O[C@@H](Cc3ccccc3)CN2[C@H]1c1ccc(Br)cc1
Reply: 0.209

Ask: Fill in z-score for record C[C@@H]1NC(=O)[C@@H](C)COC(=O)[C@H](C)NC(=O)[C@@H](C)COC1=O
Reply: -1.46

* * *

# system under test: Fibroblast growth factor 10 (Homo sapiens) (UniProt O15520)
# Sequence (O15520 whole entry, looked up): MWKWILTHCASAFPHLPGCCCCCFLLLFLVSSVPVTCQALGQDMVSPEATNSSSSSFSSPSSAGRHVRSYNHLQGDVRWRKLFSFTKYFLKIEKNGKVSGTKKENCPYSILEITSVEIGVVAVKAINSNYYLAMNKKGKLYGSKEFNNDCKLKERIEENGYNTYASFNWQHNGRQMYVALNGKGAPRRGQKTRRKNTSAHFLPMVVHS
# protocol notes: FGF10 binders on small-molecule microarrays, primary screen, biochemical, small-molecule microarray, 635 nm fluorescence (AID 1102)
# run parameters: FGF10 binding, fluorescence 635 nm, higher = more signal
Record 1 whenever composite z-score is at 0.5 or higher; record 0 when lower.

                                   compound  class_name
0  CO[C@@H]1COC(=O)[C@@H]2CCCN2C(=O)[C@@H](C)COC(=O)CC=C[C@H]1C           1
1  CCOC(=O)[C@H](CC(C)C)NC(=O)CCC1CC(OC(=O)NCc2cccc3ccccc23)CC2(CCCC(COC(=O)NCCCN3CCCC3=O)O2)O1 (some centres not stated)           0
2  COc1ccc(COC(=O)NN=C2C[C@@H](O)[C@@H](O)[C@@H]3[C@@H]4C(=O)N(c5cccc(Oc6ccccc6)c5)C(=O)[C@@H]4CC[C@@H]23)cc1           0
3  O=C1[C@H]2[C@H]3[C@H](O)[C@H](O)CC(=NOC[C@@H](O)COCc4ccco4)[C@@H]3CC[C@H]2C(=O)N1C[C@@H]1CCCO1           0

With those in mind, consider the next compound.
Ask: Confirm if composite z-score reported for the compound COC(=O)[C@@H]1CC[C@H](C)[C@@H](c2ccc(C)cc2)N1C(=O)c1ccc(C=NO[C@H](C)c2cn([C@@H]3COC[C@H]3O)nn2)cc1 is 0.5 or above.
Reply: 1

* * *

Collected composite z-score values appear next to each entry.
# System: Chordin-like protein 2 (CHRDL2)
# protocol notes: CHRDL2 small-molecule binders, primary screen, biochemical, small-molecule microarray, 635 nm fluorescence (AID 1126);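 note: printed compound slides probed with Chrdl2 protein at 4 µg/mL for 1 h at 4 C; score merges 667 nm emission intensity with signal to noise over three replicate slides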
# run parameters: small-molecule microarray binding, fluorescence 635 nm; higher = more signal
Answer as a number with no unit attached.

In [3]: df
Out[3]:
                                   compound  quantitative_readout
0  CC(=O)Nc1ccc([C@@H]2N[C@H](C(=O)O)CC[C@H]2C)cc1                  0.65
1  C#CCCCON=C1C[C@@H](O)[C@@H](O)[C@@H]2[C@@H]3C(=O)N(c4ccc(F)cc4F)C(=O)[C@@H]3CC[C@H]12                 0.392
2         COC(=O)C=CCCc1coc(C=CCNC(=O)OC)n1                  1.34
3  O=C1C=C[C@@H](O)[C@@H]2[C@@H]3C(=O)N(c4ccc(F)cc4F)C(=O)[C@@H]3CC[C@@H]12                 0.717
4  CCOC(=O)[C@H](Cc1ccccc1)NC(=O)CCC1CC(OC(=O)NCCc2ccc(F)cc2)CC2(CCCC(COC(=O)NCc3ccccc3)O2)O1 (stereo not given in full)                 0.468

Ask: Fill in composite z-score for record CCc1cc2c(nc1CC)CCN(CCC(C)=NO[C@H](C)c1cn([C@H](CO)Cc3ccccc3)nn1)C2
Reply: 0.357

Ask: Fill in composite z-score for record O=C1[C@H]2[C@H]3[C@H](O)[C@H](O)CC(=NOCc4ccccc4)[C@@H]3CC[C@H]2C(=O)N1Cc1ccc2c(c1)OCO2
Reply: 0.124

Ask: Fill in composite z-score for record CCOC(=O)[C@H](CC(C)C)NC(=O)CCC1CC(OC(=O)NCc2cccc3ccccc23)CC2(CCCC(COC(=O)NCCOc3ccccc3)O2)O1 (stereo not given in full)
Reply: 0.412

Ask: Fill in composite z-score for record COc1ccc(O[C@H]2C=C[C@@H](c3ccccc3)O[C@@H]2COC(=O)CCC(C)=NOC(C)CN2CCCc3nc(C)c(C)cc32)cc1 (stereo not given in full)
Reply: 0.43

Ask: Fill in composite z-score for record O=C1C[C@@H](O)[C@@H](O)[C@@H]2[C@@H]3C(=O)N(c4cccc(Oc5ccccc5)c4)C(=O)[C@@H]3CC[C@H]12
Reply: 0.455

Ask: Fill in composite z-score for record CO[C@H]1COC(=O)CC=C[C@H](C)[C@@H](OC)COC(=O)[C@@H](C)COC(=O)CC=C[C@@H]1C
Reply: 1.51

Ask: Fill in composite z-score for record O=C(NN=C1C[C@@H](O)[C@@H](O)[C@@H]2[C@@H]3C(=O)N(C[C@@H]4CCCO4)C(=O)[C@@H]3CC[C@@H]12)OCc1ccccc1
Reply: 0.909

Ask: Fill in composite z-score for record COc1cccc([C@H]2Oc3ccc(OC)cc3C(=NO[C@H](C)c3cn([C@H](CO)Cc4ccccc4)nn3)[C@@H]2O)c1
Reply: 0.08

Ask: Fill in composite z-score for record CCOC(=O)CCN1C(=O)[C@H]2[C@H]3[C@H](O)[C@H](O)CC(=NOCc4ccccc4)[C@H]3CC[C@H]2C1=O
Reply: 0.578

Ask: Fill in composite z-score for record CCCNC(=O)OC[C@H]1O[C@H](CCON=Cc2ccc(C(=O)N3[C@H](c4ccc(C)cc4)[C@@H](C)CC[C@H]3C(=O)OC)cc2)C=C[C@@H]1Oc1ccc(OC)cc1
Reply: 0.274

* * *

# system under test: Albumin (Bos taurus) (UniProt P02769)
# Sequence (P02769 whole entry, looked up): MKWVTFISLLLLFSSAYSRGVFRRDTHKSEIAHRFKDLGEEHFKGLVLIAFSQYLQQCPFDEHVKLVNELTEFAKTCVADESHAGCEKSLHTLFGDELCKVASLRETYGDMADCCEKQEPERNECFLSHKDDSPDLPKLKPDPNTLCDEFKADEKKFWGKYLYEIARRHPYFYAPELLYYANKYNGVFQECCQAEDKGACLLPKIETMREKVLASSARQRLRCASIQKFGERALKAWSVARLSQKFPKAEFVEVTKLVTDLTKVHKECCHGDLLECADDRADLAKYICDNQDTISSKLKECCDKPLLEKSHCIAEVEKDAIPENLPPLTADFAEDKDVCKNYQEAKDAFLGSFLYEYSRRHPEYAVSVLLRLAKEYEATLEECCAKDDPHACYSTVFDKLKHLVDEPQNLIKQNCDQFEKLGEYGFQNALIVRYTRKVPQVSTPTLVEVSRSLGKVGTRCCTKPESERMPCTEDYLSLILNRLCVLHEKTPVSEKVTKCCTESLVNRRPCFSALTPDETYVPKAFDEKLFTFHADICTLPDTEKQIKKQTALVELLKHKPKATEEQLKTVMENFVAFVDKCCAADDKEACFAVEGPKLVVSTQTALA
# protocol notes: bovine serum albumin binders on microarray, profiling panel, artefact control for SMM control protein annotation, biochemical, small-molecule microarray, Alexa647 label, 635/667 nm fluorescence (AID 1118);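 note: score merges 667 nm emission intensity and signal-to-noise per printed compound spot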
# run parameters: BSA-A647 binding, fluorescence 635 nm, higher = more signal
Collected composite z-score values appear next to each entry.
Answer as a number with no unit attached.

// known answers, use as guide
In [3]: df
Out[3]:
                                   molecule  quantitative_readout
0  O=C1[C@H]2[C@H]3[C@H](O)[C@H](O)CC(=NOC[C@@H](O)COCc4ccco4)[C@H]3CC[C@H]2C(=O)N1Cc1ccccc1                 -0.13
1  CCOC(=O)[C@H](CC(C)C)NC(=O)CCC1CC(OC(=O)NCc2cccc3ccccc23)CC2(CCCC(COC(=O)NCCOc3ccccc3)O2)O1 (some centres undefined)                 0.496
2  COC(=O)[C@@H]1CC[C@@H](C)[C@H](c2ccc(Br)cc2)N1               -0.0822

Okay, next one:
Ask: Fill in composite z-score for record Cn1c(=O)n2n(c1=O)[C@H]1[C@H](O)[C@@H]3O[C@@H]3C(=NOCc3ccccc3)[C@H]1CC2
Reply: 0.0494

* * *

# protocol notes: PSAC antagonists in infected red cells, primary screen, cell-based, P. falciparum Indochina, OD700, 18 h (AID 1157)
# run parameters: P. falciparum Indochina infected erythrocytes, osmotic lysis OD700, 18 h; higher = more signal, called active from +8 up or from −8 down
Record label 1 whenever z-score is at 0.2 or higher; record label 0 when lower.

compound	class name
Cc1ccc(S(=O)(=O)N[C@H]2COC(=O)CC=C[C@H](C)[C@@H](NS(=O)(=O)c3ccc(C)cc3)COC(=O)CC=C[C@@H]2C)cc1	label 1

Ask: Confirm if z-score reported for the compound CC(C)(C)N1C(=O)[C@H]2[C@H]3[C@H](O)[C@H](O)CC(=NOCc4ccccc4)[C@H]3CC[C@H]2C1=O is 0.2 or above.
Reply: label 0

Ask: Confirm if z-score reported for the compound O=C1[C@H]2[C@H]3[C@H](O)[C@H](O)CC(=NO[C@@H]4O[C@H](CO)[C@@H](O)[C@H](O)[C@H]4O)[C@H]3CC[C@H]2C(=O)N1c1cccc(Oc2ccccc2)c1 is 0.2 or above.
Reply: label 1

Ask: Confirm if z-score reported for the compound CCOC(=O)[C@H](Cc1ccccc1)NC(=O)CCC1CC(OC(=O)NCc2ccc3c(c2)OCO3)CC2(CCCC(COC(=O)NCCc3ccccc3OC)O2)O1 (some centres not stated) is 0.2 or above.
Reply: label 1

Ask: Confirm if z-score reported for the compound COC(=O)CC=C[C@@H](C)[C@@H](C=NOC(C)CN1CCCc2nc(C)c(C)cc21)OC (some centres not stated) is 0.2 or above.
Reply: label 1

Ask: Confirm if z-score reported for the compound Cc1cc2c(nc1C)CCCCN2CC(C)ON=C[C@@H](C)[C@H](OCc1ccccc1)C(C)C (some centres not stated) is 0.2 or above.
Reply: label 0

Ask: Confirm if z-score reported for the compound COc1ccc(O[C@@H]2[C@H](O)CO[C@H]2C=Cc2ccccc2)cc1 is 0.2 or above.
Reply: label 0
